Tested on: SF-295 CNS
Assay: NCI tumour cell line growth inhibition, 48 h
ASSAY_READOUT: TGI

Nc1ncnc2c1nc(Cl)n2C1OC2COP(=O)(O)OC2C1O (stereo not drawn)    > 300 µM
N/C(=C\c1ccc(OCc2ccccc2)c(OCc2ccccc2)c1[N+](=O)[O-])C(=O)O    > 100 µM
CN(C(=O)C12C3C4C1C1C4(C(=O)C45C6C7C4C4C5C6C74C)C3C12C)C(C)(C)C (stereo not drawn)    > 100 µM
O=C1c2ccccc2NC(=O)C2C1C(c1ccccc1)CC2(O)c1ccccc1 (stereo not drawn)    > 100 µM

I have 5 molecules here; please give me TGI for each one.
1. Cn1c(=O)nc2n(-c3cccc(Br)c3)c3ccccc3nc-2c1=O
2. COc1ccc2nc3ccc(OC)cc3c(SCc3ccc([N+](=O)[O-])cc3)c2c1
3. O=C(/C=C/c1cccnc1)NCCCCC1CCCN(C(=O)c2ccccc2)C1 (stereo not drawn)
4. Clc1cc(Cc2cc(Cl)c(Cl)c3c2OCOC3)c2c(c1Cl)COCO2
5. CCOC(=O)N1CCc2cc(OC)c(OC)c3c2c1cc1cc(OC)c(OC)cc13

1: 18.6 µM; 2: > 100 µM; 3: > 87.1 µM; 4: 78.8 µM; 5: 35.2 µM

Give one value of TGI per listed molecule.
1. O=C(CO)CC(=O)C(=O)Nc1ccccc1
2. Oc1ccccc1C=NCc1ccco1
3. COc1ccc2c(=O)c3ccoc3n(CC=C(C)C)c2c1
4. O=C1CCCCCCCC/C=C\CC(c2ccco2)O1 (stereo not drawn)

> 100 µM
> 100 µM
> 100 µM
> 100 µM

Hi, could you look up TGI for each item in my list?
1. CCOc1ccccc1NC(=O)CC1SC(=Nc2ccc([N+](=O)[O-])cc2)NC1=O (stereo not drawn)
2. FC(F)(Sc1ccccn1)c1nc2ccccc2o1
3. COC(=O)C1=C(C(=O)ON)C2C=CC1(C(Cc1ccccc1)Nc1ccccc1)O2 (stereo not drawn)
4. CCCCCC/C=C1\CCC(CN2CCCC2)C1=O (stereo not drawn)
5. COc1c(C)c2c(c(=O)c3c(C)cccc3n2C)c2c1c(=O)c1c(C)cccc1n2C
6. CCOc1ccc(-c2nonc2NC(=O)c2cccc(C)c2)cc1OCC

1. 34.9 µM
2. > 100 µM
3. 26.7 µM
4. 34.1 µM
5. > 10 µM
6. > 100 µM

----------
Tested on: SK-MEL-5 melanoma
Test: NCI tumour cell line growth inhibition, 48 h; in the data active means GI50 below about 0.43 µM; inactive means the rest
# valid calls are YES (active), NO (inactive); nothing else

Examples with answers:
CC1(C)N=C(N)N=C(N)N1c1ccc(OCCCCOc2ccc(S(=O)(=O)F)cc2)c(Cl)c1    YES
COc1ccc(-n2nnnc2-c2c[nH]c3c(F)cc(F)cc23)cc1    NO
O=C(Nc1cccc(Cl)c1)c1ccc(NC2=C(Cl)C(=O)N(Cc3ccccc3)C2=O)cc1    NO

I'd appreciate the recorded outcome for CCOc1ccc(-c2nonc2NC(=O)c2cccc(C)c2)cc1OCC from this test. NO

Called result for Cc1ccccc1N=Nc1ccc(NC(=O)c2ccnn2C)c(C)c1 NO

# fetch the recorded call for O=c1nc2n(-c3ccc(Cl)cc3)c3ccc([N+](=O)[O-])cc3cc-2c(=O)[nH]1 here NO

----------
Tested on: OVCAR-5 ovarian
Test: NCI tumour cell line growth inhibition, 48 h
ASSAY_READOUT: TGI (µM)
Numbers only, in µM.

Consider the following illustrative entries.
CN(C)c1ccc(/C=C2\C[C@H]3[C@@H]4CCc5cc(OCCN6CCCC6)ccc5[C@H]4CC[C@]3(C)C2=O)cc1    8.62
COc1cc2cc(Oc3ccc(NC(=O)Nc4cccc(C(F)(F)F)c4)cc3)c(C)nc2cc1OC    13
CC1=C2C[C@H]3[C@@H](CC[C@@H]4CC(NS(C)(=O)=O)CC[C@@]43C)[C@@H]2CC[C@@]2(C1)O[C@@H]1C[C@H](C)CN[C@H]1[C@H]2C (some centres undefined)    27.5

Here is another compound to look at.
Can you share its TGI? I mean this compound: O=C1/C(=C/c2ccccc2)CN(C(=O)c2cccnc2)C/C1=C\c1ccccc1 5.13
